Tested on: Huh7 miR-122 levels, qRT-PCR, 48 h
measurement notes: miR-122 upregulation in Huh7 hepatoma cells – cell-based, qRT-PCR, dry powder, orthogonal assay, dose response (AID 720726)
measured quantity: AC40

molecule=Cc1cccc(NC(=O)Nc2ccc3c(c2)C(=O)N(C)[C@@H]2CC[C@H](CC(=O)NCc4ccccc4Cl)O[C@H]2CO3)c1 observed="8.38 µM"
molecule=COCC(=O)N(C)C[C@H]1Oc2cc(-c3ccccc3F)ccc2S(=O)(=O)N([C@H](C)CO)C[C@H]1C observed="18.9 µM"
molecule=CCCC#Cc1ccc2c(c1)O[C@H](CN(C)C(=O)COC)[C@H](C)CN([C@@H](C)CO)S2(=O)=O observed="23.9 µM"
molecule=CCCC#Cc1ccc2c(c1)O[C@H](CN(C)C(=O)c1ccncc1)[C@H](C)CN([C@@H](C)CO)S2(=O)=O observed="3.54 µM"
molecule=COCC(=O)N(C)C[C@H]1Oc2cc(C#Cc3cccnc3)ccc2S(=O)(=O)N([C@H](C)CO)C[C@H]1C observed="16.9 µM"
